The origin of these recorded values is the supplement of paper PMC10567573.

B1: MIA2 (parent)
chain: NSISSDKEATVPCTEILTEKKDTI

# Variants of: B1
# TEST_METHOD_NOTES: protein stability index of a GFP-peptide fusion (GPS, HEK-293T) (PSI 1-6); higher = more stable;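 also: lentivirally expressed fusions sorted by FACS into six bins by GFP to DsRed ratio, PSI derived from sequencing read proportions per bin multiplied by bin number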
# STATED_CONDITIONS: c terminus: a fixed tail appended
Recorded protein stability index by entry

| SEQUENCE_VARIANT | protein stability index |
| --- | --- |
| T18G | 5.43 |
| I24E | 5.81 |
| I16G | 5.11 |
| I3A | 5.61 |
| I16Q | 5.65 |
| I3E | 5.51 |
| I16C | 5.27 |
| C13W | 5.06 |
| A9I | 5.3 |
| I24G | 5.56 |
| K20T | 5.48 |
| V11S | 5.22 |
| K7H | 5.38 |
| T14M | 5.12 |
| A9G | 5.42 |
| K21E | 5.69 |
| E19D | 5.46 |
| K20H | 5.42 |
| T23K | 5.54 |
| A9M | 5.59 |
| T14D | 5.88 |
| E8T | 5.17 |
| T14C | 5.39 |
| D6L | 5.06 |
| V11Y | 4.89 |
| T18K | 5.42 |
| L17Q | 5.4 |
| S4D | 5.54 |
| T23A | 5.55 |
| S5L | 5.42 |
| S2E | 5.67 |
| T10H | 5.48 |
| I3M | 5.45 |
| S5R | 4.71 |
| P12K | 5.47 |
| S2Y | 4.49 |
| K21R | 5.39 |
| E15S | 5.34 |
| E19L | 4.43 |
| E15K | 4.92 |
| T14W | 4.74 |
| L17Y | 5.37 |
| D22G | 5.33 |
| E8M | 5.14 |
| K21Q | 5 |
| L17M | 5.28 |
